- Tgt: T1, human TL1A extracellular domain with N-terminal HIS and FLAG tag (human, UniProt O95150 72-251)
- T1 construct: the whole entry is named; also called TNFSF15
- T1 sequence: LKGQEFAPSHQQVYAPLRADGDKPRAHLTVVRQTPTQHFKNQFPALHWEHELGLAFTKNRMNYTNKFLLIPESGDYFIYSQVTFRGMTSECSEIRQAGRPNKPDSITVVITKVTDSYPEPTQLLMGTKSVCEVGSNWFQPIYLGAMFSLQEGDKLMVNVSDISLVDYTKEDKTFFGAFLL
- Protocol Notes: SPR Run 9, antibody on Protein A, TL1A 5 ug/mL, timepoint 590
Metric: TL1A Binding Level (Late) (RU)
Just the number in RU, nothing appended.

320-611 (antibody, human IgG1, name in Kabat numbering, V domains shown, full-length human IgG1, lambda) VH: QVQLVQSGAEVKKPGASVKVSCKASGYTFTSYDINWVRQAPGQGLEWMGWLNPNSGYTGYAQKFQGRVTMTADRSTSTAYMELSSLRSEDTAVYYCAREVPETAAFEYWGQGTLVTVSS VL: QSVLTQPPSVSGAPGQRVTISCTSSSSDIGAGLGVHWYQQLPGTAPKLLIEGYYNRPSGVPDRFSGSKSGTSASLTITGLLPEDEGDYYCQSWDKTLSALFGGGTKLTVLG ... 127

Q: Would you kindly share the measured TL1A Binding Level (Late) for 320-616 (antibody, human IgG1, name in Kabat numbering, V domains shown, full-length human IgG1, lambda) VH: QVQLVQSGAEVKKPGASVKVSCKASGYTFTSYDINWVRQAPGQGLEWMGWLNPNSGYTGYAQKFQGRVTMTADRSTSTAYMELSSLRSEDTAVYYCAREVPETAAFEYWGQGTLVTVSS VL: QSVLTQPPSVSGAPGQRVTISCTSSSSDIGAGLGVHWYQQLPGTAPKLLIEGYYNRPSGVPDRFSGSKSGTSASLTITGLLPEDEGDYYCQSYDATLSALFGGGTKLTVLG ?
Ans: 112

Q: Give the measured TL1A Binding Level (Late) of 320-603 (antibody, human IgG1, name in Kabat numbering, V domains shown, full-length human IgG1, lambda) VH: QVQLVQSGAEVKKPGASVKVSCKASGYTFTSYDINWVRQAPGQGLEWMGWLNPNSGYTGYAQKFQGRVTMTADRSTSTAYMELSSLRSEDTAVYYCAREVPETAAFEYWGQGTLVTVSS VL: QSVLTQPPSVSGAPGQRVTISCTSSSSDIGAGLGVLWYQQLPGTAPKLLIEGYYNRPSGVPDRFSGSKSGTSASLTITGLLPEDEGDYYCQSFDGTLSALFGGGTKLTVLG .
Ans: 118

Hello, the source for this data is patent US20170081400A1, in case you need it.
